Test system: Neutrophil
Experiment: Inhibition of immune complex-stimulated neutrophil oxidative metabolism in New Zealand white rabbit neutrophils assessed as ROS generation at 50 uM after 30 mins by lucigenin enhanced chemiluminescence assay
Format: functional
Settings: Oryctolagus cuniculus, 0.5 h
measured_property: inhibition at 50 µM (%)
Hi! Could you send only the number? It should be in %, unit omitted.

// worked examples, inhibition at 50 µM included
{"smiles_data": "O=c1oc2ccccc2cc1-c1ccccc1", "readout_unit": "%", "inhibition at 50 µM": 27.9}
{"smiles_data": "O=c1oc2cc(O)c(O)cc2cc1-c1ccc2c(c1)OCO2", "readout_unit": "%", "inhibition at 50 µM": 99.6}
{"smiles_data": "O=c1oc2ccc(O)cc2cc1-c1ccccc1", "readout_unit": "%", "inhibition at 50 µM": 83.5}
{"smiles_data": "COC(=O)Oc1ccc2oc(=O)c(-c3ccc4c(c3)OCO4)cc2c1", "readout_unit": "%", "inhibition at 50 µM": 68}
{"smiles_data": "O=c1c(O)c(-c2ccc(O)c(O)c2)oc2cc(O)cc(O)c12", "readout_unit": "%", "inhibition at 50 µM": 99.9}

Kindly note the recorded inhibition at 50 µM for COC(=O)Oc1ccc2oc(=O)c(-c3ccccc3OC(=O)OC)cc2c1 , which is 96.5

---

Test system: Neutrophil
Assay: Inhibition of immune complex-stimulated neutrophil oxidative metabolism in New Zealand white rabbit neutrophils assessed as ROS generation at 50 uM after 30 mins by lucigenin enhanced chemiluminescence assay
Type: functional
Conditions: Oryctolagus cuniculus, 0.5 h
Quick reference: inhibition at 50 µM of the listed items.
Hi! Could you send only the number? It should be in %, unit omitted.

{"smiles_data": "O=c1oc2ccc(O)cc2cc1-c1ccc(O)c(O)c1", "inhibition at 50 µM (%)": 98.7}

Kindly note the recorded inhibition at 50 µM for COC(=O)Oc1ccc2cc(-c3ccc4c(c3)OCO4)c(=O)oc2c1 , which is 67.1

Kindly note the recorded inhibition at 50 µM for O=c1oc2ccccc2cc1-c1ccc2c(c1)OCO2 , which is 5.7

Kindly note the recorded inhibition at 50 µM for O=c1oc2cc(O)c(O)cc2cc1-c1ccc(O)c(O)c1 , which is 94.9

---

Tested on: Neutrophil
Assay: Inhibition of immune complex-stimulated neutrophil oxidative metabolism in New Zealand white rabbit neutrophils assessed as ROS generation after 30 mins by luminol enhanced chemiluminescence assay
Assay type: functional, cell-based
Conditions: Oryctolagus cuniculus, 0.5 h, read-out: pIC50 (converted)
measured_property: IC50 (nM)
Hi! Could you send only the number? It should be in nM, unit omitted.

// worked examples, IC50 included
{"smiles_data": "COC(=O)Oc1ccc2oc(=O)c(-c3ccccc3)cc2c1", "target": "Neutrophil", "IC50 [nM]": 30900}
{"smiles_data": "O=c1oc2ccc(O)cc2cc1-c1ccc(O)c(O)c1", "target": "Neutrophil", "IC50 [nM]": 4900}
{"smiles_data": "COC(=O)Oc1ccc2oc(=O)c(-c3ccccc3OC(=O)OC)cc2c1", "target": "Neutrophil", "IC50 [nM]": 2880}

Kindly note the recorded IC50 for COC(=O)Oc1ccc2oc(=O)c(-c3ccc(OC(=O)OC)c(OC(=O)OC)c3)cc2c1 , which is 2040

Kindly note the recorded IC50 for COC(=O)Oc1ccc(-c2cc3cc(OC(=O)OC)c(OC(=O)OC)cc3oc2=O)cc1OC(=O)OC , which is 389

---

Quick reference: viability at 0.5 h, 50 µM of the listed items.
Test: Cytotoxicity against New Zealand white rabbit neutrophils assessed as cell viability at 50 uM after 30 mins by trypan blue exclusion test
Assay type: cell-based, Oryctolagus cuniculus, Neutrophil
Conditions: read-out: Activity
Hi! Could you send only the number? It should be in %, unit omitted.

Kindly note the recorded viability at 0.5 h, 50 µM for O=c1oc2ccc(O)cc2cc1-c1ccc(O)c(O)c1 , which is 92.8

Kindly note the recorded viability at 0.5 h, 50 µM for COC(=O)Oc1ccc2cc(-c3ccc4c(c3)OCO4)c(=O)oc2c1 , which is 94.3

Kindly note the recorded viability at 0.5 h, 50 µM for O=c1oc2ccc(O)cc2cc1-c1ccccc1 , which is 92.3

Kindly note the recorded viability at 0.5 h, 50 µM for O=c1oc2ccc(O)cc2cc1-c1cccc(O)c1 , which is 93.8

---

Quick reference: inhibition at 50 µM of the listed items.
System: Neutrophil
Test: Inhibition of immune complex-stimulated neutrophil oxidative metabolism in New Zealand white rabbit neutrophils assessed as ROS generation at 50 uM after 30 mins by lucigenin enhanced chemiluminescence assay
Type: functional
Settings: Oryctolagus cuniculus, 0.5 h
Hi! Could you send only the number? It should be in %, unit omitted.

// returns inhibition at 50 µM for COC(=O)Oc1cc2cc(-c3ccc4c(c3)OCO4)c(=O)oc2cc1OC(=O)OC with Neutrophil; value = 99

// returns inhibition at 50 µM for COC(=O)Oc1ccc(-c2cc3cc(OC(=O)OC)c(OC(=O)OC)cc3oc2=O)cc1OC(=O)OC with Neutrophil; value = 99.9

// returns inhibition at 50 µM for O=c1oc2ccc(O)cc2cc1-c1ccc2c(c1)OCO2 with Neutrophil; value = 83.5

// returns inhibition at 50 µM for COC(=O)Oc1cccc(-c2cc3cc(OC(=O)OC)ccc3oc2=O)c1 with Neutrophil; value = 82.1

// returns inhibition at 50 µM for COC(=O)Oc1ccc(-c2cc3cc(OC(=O)OC)ccc3oc2=O)cc1 with Neutrophil; value = 92.5

---

Test: Cytotoxicity against New Zealand white rabbit neutrophils assessed as LDH release at 50 uM after 30 mins by spectrophotometry
Assay type: cell-based, Oryctolagus cuniculus
Conditions: neutrophil, 0.5 h
Tag: met if measured Activity is not below 10%, not met if it is.

As a guide, the following entries are already answered.
{"smiles_data": "O=c1oc2ccc(O)cc2cc1-c1ccc2c(c1)OCO2", "category": "not met"}
{"smiles_data": "COC(=O)Oc1ccc2oc(=O)c(-c3ccc(OC(=O)OC)c(OC(=O)OC)c3)cc2c1", "category": "not met"}
{"smiles_data": "O=c1oc2cc(O)c(O)cc2cc1-c1ccc2c(c1)OCO2", "category": "met"}

Query: Please indicate if the recorded Activity for COC(=O)Oc1ccc(-c2cc3cc(OC(=O)OC)ccc3oc2=O)cc1 meets or exceeds 10%.
Result: met

Query: Please indicate if the recorded Activity for COC(=O)Oc1cccc(-c2cc3cc(OC(=O)OC)ccc3oc2=O)c1 meets or exceeds 10%.
Result: not met

Query: Please indicate if the recorded Activity for O=c1oc2ccc(O)cc2cc1-c1ccccc1 meets or exceeds 10%.
Result: met

Query: Please indicate if the recorded Activity for COC(=O)Oc1ccc(-c2cc3cc(OC(=O)OC)c(OC(=O)OC)cc3oc2=O)cc1OC(=O)OC meets or exceeds 10%.
Result: met

Query: Please indicate if the recorded Activity for COC(=O)Oc1ccc2oc(=O)c(-c3ccccc3)cc2c1 meets or exceeds 10%.
Result: met

Query: Please indicate if the recorded Activity for O=c1oc2cc(O)ccc2cc1-c1ccc2c(c1)OCO2 meets or exceeds 10%.
Result: met

Query: Please indicate if the recorded Activity for O=c1oc2ccccc2cc1-c1ccc2c(c1)OCO2 meets or exceeds 10%.
Result: met

---

Assay: Cytotoxicity against New Zealand white rabbit neutrophils assessed as LDH release at 50 uM after 30 mins by spectrophotometry
Format: cell-based, Oryctolagus cuniculus
Conditions: neutrophil, 0.5 h
Quick reference: Activity of the listed items.
Hi! Could you send only the number? It should be in %, unit omitted.

// worked examples, Activity included
{"smiles_data": "O=c1oc2cc(O)c(O)cc2cc1-c1ccc(O)c(O)c1", "recorded_number": 10.5}
{"smiles_data": "O=c1oc2ccc(O)cc2cc1-c1ccc(O)cc1", "recorded_number": 18.3}
{"smiles_data": "O=c1oc2ccccc2cc1-c1ccccc1", "recorded_number": 17.1}
{"smiles_data": "O=c1c(O)c(-c2ccc(O)c(O)c2)oc2cc(O)cc(O)c12", "recorded_number": 10.9}

Kindly note the recorded Activity for COC(=O)Oc1ccc2oc(=O)c(-c3ccccc3OC(=O)OC)cc2c1 , which is 14.6

Kindly note the recorded Activity for COC(=O)Oc1ccc2oc(=O)c(-c3ccc4c(c3)OCO4)cc2c1 , which is 11.4

Kindly note the recorded Activity for COC(=O)Oc1ccc2cc(-c3ccc4c(c3)OCO4)c(=O)oc2c1 , which is 13.8

Kindly note the recorded Activity for COC(=O)Oc1cc2cc(-c3ccc4c(c3)OCO4)c(=O)oc2cc1OC(=O)OC , which is 11.9

Kindly note the recorded Activity for O=c1oc2ccc(O)cc2cc1-c1ccc(O)c(O)c1 , which is 11.9

Kindly note the recorded Activity for O=c1oc2ccc(O)cc2cc1-c1cccc(O)c1 , which is 11.2

---

Tested on: Neutrophil
Assay: Inhibition of immune complex-stimulated neutrophil oxidative metabolism in New Zealand white rabbit neutrophils assessed as ROS generation after 30 mins by luminol enhanced chemiluminescence assay
Assay type: functional, cell-based
Conditions: Oryctolagus cuniculus, 0.5 h, read-out: pIC50 (converted)
measured_property: IC50 (µM)
Hi! Could you send only the number? It should be in µM, unit omitted.

// worked examples, IC50 included
{"smiles_data": "COC(=O)Oc1cccc(-c2cc3cc(OC(=O)OC)ccc3oc2=O)c1", "IC50 (µM)": 21.9}
{"smiles_data": "O=c1oc2ccc(O)cc2cc1-c1ccccc1O", "IC50 (µM)": 2.82}
{"smiles_data": "O=c1oc2cc(O)c(O)cc2cc1-c1ccc(O)c(O)c1", "IC50 (µM)": 13.5}

Kindly note the recorded IC50 for COC(=O)Oc1ccc(-c2cc3cc(OC(=O)OC)ccc3oc2=O)cc1 , which is 27.5

Kindly note the recorded IC50 for COC(=O)Oc1cc2cc(-c3ccc4c(c3)OCO4)c(=O)oc2cc1OC(=O)OC , which is 0.661

Kindly note the recorded IC50 for O=c1oc2ccc(O)cc2cc1-c1ccc(O)cc1 , which is 29.5
